- system_name: Dopamine transporter (DAT) (Rattus norvegicus, UniProt P23977)
- Construct: striatum and frontal cortex dissected from frozen Sprague-Dawley rat brains (Pel-Freez, Rogers, Ark.); tissue Pel-Freez, Rogers, Ark; host or cells: rat striatum membranes (frozen Sprague-Dawley rat brains)
- Sequence (P23977 whole entry): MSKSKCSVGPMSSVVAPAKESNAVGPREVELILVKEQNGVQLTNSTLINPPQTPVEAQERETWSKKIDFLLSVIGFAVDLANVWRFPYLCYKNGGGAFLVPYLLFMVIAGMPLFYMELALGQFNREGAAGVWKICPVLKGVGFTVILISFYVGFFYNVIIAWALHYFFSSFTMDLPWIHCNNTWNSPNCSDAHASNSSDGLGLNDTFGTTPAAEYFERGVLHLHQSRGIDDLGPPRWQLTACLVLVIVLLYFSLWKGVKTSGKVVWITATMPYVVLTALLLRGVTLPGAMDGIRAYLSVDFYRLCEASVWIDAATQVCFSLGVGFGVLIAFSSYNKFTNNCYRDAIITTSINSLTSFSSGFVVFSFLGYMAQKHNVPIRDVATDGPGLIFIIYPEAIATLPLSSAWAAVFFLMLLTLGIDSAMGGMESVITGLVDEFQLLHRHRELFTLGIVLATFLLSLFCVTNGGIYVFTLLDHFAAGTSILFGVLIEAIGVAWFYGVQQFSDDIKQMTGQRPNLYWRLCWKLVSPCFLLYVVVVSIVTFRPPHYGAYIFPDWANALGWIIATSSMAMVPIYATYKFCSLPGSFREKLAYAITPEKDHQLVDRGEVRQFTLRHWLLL
- method_notes: Displacement of [125I]RTI-55 binding at dopamine transport sites in rat striatum membranes
The entries below come with measured IC50 values attached.
Remember to follow the number with its unit.

Consider the worked cases shown below.
compound	system_name	recorded_result
CCC(=O)[C@H]1[C@@H](c2ccc(C(C)C)cc2)C[C@@H]2CC[C@H]1N(C)C2 (racemic) [12c]	Dopamine transporter (DAT) (Rattus norvegicus, UniProt P23977)	7500 nM
C=Cc1ccc(C2CC3CCC(C2C(=O)CC)N(C)C3)cc1 (stereo not drawn) [12e]	Dopamine transporter (DAT) (Rattus norvegicus, UniProt P23977)	75 nM
CCC(=O)C1C(c2ccc(C)cc2)C(c2ccccc2)C2(C)CCC1N(C)C2 (stereo not drawn) [12j]	Dopamine transporter (DAT) (Rattus norvegicus, UniProt P23977)	5600 nM
CCC(=O)[C@H]1[C@@H](c2ccc(C)cc2)[C@H](C)[C@@H]2CC[C@H]1N(C)C2 (racemic) [12g]	Dopamine transporter (DAT) (Rattus norvegicus, UniProt P23977)	1830 nM
CCC(=O)[C@@H]1C2CCC(C[C@H]1c1ccc3ccccc3c1)CN2C (relative stereo) [13b]	Dopamine transporter (DAT) (Rattus norvegicus, UniProt P23977)	20.8 nM

What the record says about CCC(=O)[C@@H]1C2CCC(C[C@@H]1c1ccc(C)cc1)CN2C (relative stereo) [12a] : IC50 is 117 nM

What the record says about CCC(=O)C1C(c2ccc(C)cc2)C(c2ccccc2)C2CCC1N(C)C2 (stereo not drawn) [12h] : IC50 is 4100 nM

What the record says about CCC(=O)[C@@H]1C2CCC(CN2)C[C@H]1c1ccc(C)cc1 (relative stereo) [18a] : IC50 is 187 nM

What the record says about CCC(=O)C1C(c2ccc(C)cc2)C(C)C2(C)CCC1N(C)C2 (stereo not drawn) [12i] : IC50 is 2140 nM

---

- system_name: serotonin transporter (SERT) (Rattus norvegicus)
- Construct: striatum and frontal cortex dissected from frozen Sprague-Dawley rat brains (Pel-Freez, Rogers, Ark.); tissue Pel-Freez, Rogers, Ark; host or cells: rat frontal cortex membranes (frozen Sprague-Dawley rat brains)
- method_notes: Displacement of [3H]paroxetine binding at 5-HT transport sites in rat frontal cortex membranes
observation_type: pKi
Interpret pKi as the negative base-10 log of the concentration measured in mol/L.

compound	pKi
CCC(=O)[C@@H]1C2CCC(CN2)C[C@H]1c1ccc(C)cc1 (relative stereo) [18a]	6.33
C=C(C)c1ccc([C@H]2C[C@@H]3CC[C@H]([C@H]2C(=O)CC)N(C)C3)cc1 (racemic) [12f]	7.48
CCC(=O)[C@@H]1C2CCC(C[C@@H]1c1ccc3ccccc3c1)CN2C (relative stereo) [12b]	7.87

Attention now shifts to the item below.
What the record says about CCC(=O)[C@@H]1C2CCC(C[C@H]1c1ccc3ccccc3c1)CN2C (relative stereo) [13b] : pKi is 8.21

---

The entries below come with measured pIC50 values attached.
- system_name: Dopamine transporter (DAT) (Rattus norvegicus)
- Construct: striatum and frontal cortex dissected from frozen Sprague-Dawley rat brains (Pel-Freez, Rogers, Ark.); tissue Pel-Freez, Rogers, Ark; host or cells: rat striatum membranes (frozen Sprague-Dawley rat brains)
- method_notes: Displacement of [125I]RTI-55 binding at dopamine transport sites in rat striatum membranes
Interpret pIC50 as the negative base-10 log of the concentration measured in mol/L.

compound	pIC50
CCC(=O)[C@@H]1C2CCC(C[C@@H]1c1ccc3ccccc3c1)CN2C (relative stereo) [12b]	8.55
C=C(C)c1ccc([C@H]2C[C@@H]3CC[C@H]([C@H]2C(=O)CC)N(C)C3)cc1 (racemic) [12f]	6.06
CCC(=O)C1C(c2ccc(Cl)cc2)CC2CCC1N(C)C2 (stereo not shown) [12d]	7.42

pIC50 of CCC(=O)[C@@H]1C2CCC(CN2)C[C@@H]1c1ccc(C)cc1 (relative stereo) [compound 19] , assay on Dopamine transporter (DAT) (Rattus norvegicus), is 7.60

---

- system_name: Dopamine transporter (DAT) (Rattus norvegicus)
- Construct: striatum and frontal cortex dissected from frozen Sprague-Dawley rat brains (Pel-Freez, Rogers, Ark.); tissue Pel-Freez, Rogers, Ark; host or cells: rat striatum membranes (frozen Sprague-Dawley rat brains)
- method_notes: Displacement of [125I]RTI-55 binding at dopamine transport sites in rat striatum membranes
- measurement_context: [125I]RTI-55 10 pM, rat striatum membranes; mean ± S.E.M., at least three experiments; tested as racemates; read-out: Binding (nM) DAT (converted)
observation_type: IC50
Remember to follow the number with its unit.

Consider the worked cases shown below.
compound	system_name	recorded_result
CCC(=O)C1C2CCC(CC1c1ccc(C)cc1)N(C)C2 (stereo not shown)	Dopamine transporter (DAT) (Rattus norvegicus)	4700 nM
C=C(C)c1ccc([C@@H]2C[C@@H]3CC[C@@H](NC3)[C@H]2C(=O)CC)cc1 (racemic) [18b]	Dopamine transporter (DAT) (Rattus norvegicus)	370 nM
CCC(=O)C1C(c2ccc(C)cc2)CC2CCC1N(C)C2=O (stereo not shown)	Dopamine transporter (DAT) (Rattus norvegicus)	7000 nM

Attention now shifts to the item below.
What the record says about CCC(=O)[C@@H]1C2CCC(C[C@H]1c1ccc(C)cc1)CN2C (relative stereo) [13a] : IC50 is 1160 nM

---

- system_name: serotonin transporter (SERT) (Rattus norvegicus, UniProt P31652)
- Construct: striatum and frontal cortex dissected from frozen Sprague-Dawley rat brains (Pel-Freez, Rogers, Ark.); tissue Pel-Freez, Rogers, Ark; host or cells: rat frontal cortex membranes (frozen Sprague-Dawley rat brains)
- Sequence (P31652 whole entry): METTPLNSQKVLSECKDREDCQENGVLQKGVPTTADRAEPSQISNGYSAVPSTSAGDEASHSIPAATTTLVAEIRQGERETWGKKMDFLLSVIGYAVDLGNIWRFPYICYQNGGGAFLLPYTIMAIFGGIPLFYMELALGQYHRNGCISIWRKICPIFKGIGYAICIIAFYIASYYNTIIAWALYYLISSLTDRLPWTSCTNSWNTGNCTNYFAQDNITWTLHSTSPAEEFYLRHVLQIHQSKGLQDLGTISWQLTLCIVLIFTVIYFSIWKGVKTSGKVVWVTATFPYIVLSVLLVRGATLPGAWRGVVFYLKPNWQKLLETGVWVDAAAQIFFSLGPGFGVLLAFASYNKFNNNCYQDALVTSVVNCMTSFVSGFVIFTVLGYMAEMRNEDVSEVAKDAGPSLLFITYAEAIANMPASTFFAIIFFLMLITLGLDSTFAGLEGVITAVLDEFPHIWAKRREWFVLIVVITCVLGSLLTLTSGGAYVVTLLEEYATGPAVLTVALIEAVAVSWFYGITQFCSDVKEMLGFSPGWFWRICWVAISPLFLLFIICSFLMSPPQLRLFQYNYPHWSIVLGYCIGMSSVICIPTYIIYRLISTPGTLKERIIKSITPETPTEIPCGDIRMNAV
- method_notes: Displacement of [3H]paroxetine binding at 5-HT transport sites in rat frontal cortex membranes
- measurement_context: SERT binding value divided by DAT binding value
The entries below come with measured Ratio SERT/DAT values attached.
Number only, please.

compound	Ratio SERT/DAT
C=Cc1ccc(C2CC3CCC(C2C(=O)CC)N(C)C3)cc1 (stereo not shown) [12e]	1.9
CCC(=O)[C@@H]1C2CCC(CN2)C[C@H]1c1ccc(C)cc1 (relative stereo) [18a]	2.5

Attention now shifts to the item below.
What the record says about CCC(=O)C1C(c2ccc(Cl)cc2)CC2CCC1N(C)C2 (stereo not shown) [12d] : Ratio SERT/DAT is 23

---

- system_name: serotonin transporter (SERT) (Rattus norvegicus, UniProt P31652)
- Construct: striatum and frontal cortex dissected from frozen Sprague-Dawley rat brains (Pel-Freez, Rogers, Ark.); tissue Pel-Freez, Rogers, Ark; host or cells: rat frontal cortex membranes (frozen Sprague-Dawley rat brains)
- method_notes: Displacement of [3H]paroxetine binding at 5-HT transport sites in rat frontal cortex membranes
The entries below come with measured Ki values attached.

Consider the worked cases shown below.
molecule	Ki
CCC(=O)C1C(c2ccc(C)cc2)C(c2ccccc2)C2CCC1N(C)C2 (stereo not drawn) [12h]	> 2500 nM
CCC(=O)C1C(c2ccc(C)cc2)C(C)C2(C)CCC1N(C)C2 (stereo not drawn) [12i]	> 2500 nM
CCC(=O)[C@@H]1C2CCC(C[C@@H]1c1ccc(C)cc1)CN2C (relative stereo) [12a]	2230 nM
CCC(=O)[C@H]1[C@@H](c2ccc(C)cc2)[C@H](C)[C@@H]2CC[C@H]1N(C)C2 (racemic) [12g]	> 2500 nM

Attention now shifts to the item below.
What the record says about CCC(=O)[C@@H]1C2CCC(CN2)C[C@@H]1c1ccc(C)cc1 (relative stereo) : Ki is 156 nM

---

- system_name: serotonin transporter (SERT) (Rattus norvegicus, UniProt P31652)
- Construct: striatum and frontal cortex dissected from frozen Sprague-Dawley rat brains (Pel-Freez, Rogers, Ark.); tissue Pel-Freez, Rogers, Ark; host or cells: rat frontal cortex membranes (frozen Sprague-Dawley rat brains)
- method_notes: Displacement of [3H]paroxetine binding at 5-HT transport sites in rat frontal cortex membranes
- measurement_context: SERT binding value divided by DAT binding value
observation_type: Ratio SERT/DAT
Number only, please.

Consider the worked cases shown below.
compound	observation_type	recorded_result
CCC(=O)[C@H]1[C@@H](c2ccc(C(C)C)cc2)C[C@@H]2CC[C@H]1N(C)C2 (racemic) [12c]	Ratio SERT/DAT	0.23
CCC(=O)[C@@H]1C2CCC(CN2)C[C@@H]1c1ccc(C)cc1 (relative stereo)	Ratio SERT/DAT	6.3

What the record says about CCC(=O)[C@@H]1C2CCC(C[C@@H]1c1ccc(C)cc1)CN2C (relative stereo) [12a] : Ratio SERT/DAT is 19

What the record says about CCC(=O)[C@@H]1C2CCC(C[C@@H]1c1ccc3ccccc3c1)CN2C (relative stereo) [12b] : Ratio SERT/DAT is 4.8

What the record says about C=C(C)c1ccc([C@H]2C[C@@H]3CC[C@H]([C@H]2C(=O)CC)N(C)C3)cc1 (racemic) [12f] : Ratio SERT/DAT is 0.03

What the record says about C=C(C)c1ccc([C@@H]2C[C@@H]3CC[C@@H](NC3)[C@H]2C(=O)CC)cc1 (racemic) [18b] : Ratio SERT/DAT is 0.02
